molecular target: Smoothened (SMO) (Mus musculus); construct: C3H10T1/2 cells (ATCC #CCL-226) were split and seeded; endogenous in cells; host or cells: C3H10T1/2 (ATCC #CCL-226); assay: Smoothened (SMO)/Sonic Hedgehog (SHh) Transient Transcriptional Activation Assay (Gli-luciferase reporter in C3H10T1/2 cells); assay type: cell-based, murine; settings: C3H 10T1/2, 2 μM compound; transfected C3H10T1/2 cells, recombinant human SHh 250 ng/mL, 20 hours, luciferase readout; read-out: SMO CELL % INHIBITION @ 2 μM
Sequence (P56726 33-793): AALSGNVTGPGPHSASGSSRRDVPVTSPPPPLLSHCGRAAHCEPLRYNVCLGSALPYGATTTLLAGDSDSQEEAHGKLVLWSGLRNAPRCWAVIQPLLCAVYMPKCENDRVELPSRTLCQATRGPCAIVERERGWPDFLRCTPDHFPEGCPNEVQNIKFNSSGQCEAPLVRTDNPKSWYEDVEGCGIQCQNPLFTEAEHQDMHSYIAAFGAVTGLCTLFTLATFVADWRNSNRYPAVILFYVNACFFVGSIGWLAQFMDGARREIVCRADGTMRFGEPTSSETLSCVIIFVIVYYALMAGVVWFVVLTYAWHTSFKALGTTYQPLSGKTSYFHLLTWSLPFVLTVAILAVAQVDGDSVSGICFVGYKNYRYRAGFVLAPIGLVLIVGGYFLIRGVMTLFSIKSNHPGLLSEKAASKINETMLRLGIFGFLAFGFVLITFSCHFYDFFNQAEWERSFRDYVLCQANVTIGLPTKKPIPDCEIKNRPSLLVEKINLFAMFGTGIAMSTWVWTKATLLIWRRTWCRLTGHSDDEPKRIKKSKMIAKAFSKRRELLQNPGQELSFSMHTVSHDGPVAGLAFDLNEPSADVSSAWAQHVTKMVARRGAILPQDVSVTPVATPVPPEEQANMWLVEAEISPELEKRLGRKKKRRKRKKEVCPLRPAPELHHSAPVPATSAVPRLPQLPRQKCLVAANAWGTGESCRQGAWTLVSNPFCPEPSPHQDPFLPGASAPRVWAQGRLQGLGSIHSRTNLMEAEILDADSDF
Where a name gives a salt, the structure may show the parent alone.
value_type: inhibition at 2 µM (%)

molecule	inhibition at 2 µM / %
CN1CC[C@@H](NC(=O)Nc2ccc(C#N)cc2)C[C@@H]1c1nc2cc(Cl)ccc2[nH]1 [Example 64, hydrochloride]	103
CN1C[C@@H](NC(=O)Nc2ccc(Cl)c(C(F)(F)F)c2)C[C@H]1c1nc2ccc(F)cc2[nH]1	104
CN1CC[C@@H](NC(=O)Cc2ccccc2F)C[C@@H]1c1nc2ccccc2[nH]1 [Example 120, trifluoroacetate]	63.7
CC(C)CN1CC[C@@H](NC(=O)Nc2ccc(C#N)cc2)C[C@@H]1c1nc2ccccc2[nH]1	106
CN1CC[C@@H](NC(=O)c2cc3c(cc2Cl)OCCO3)C[C@@H]1c1nc2cc(Cl)ccc2[nH]1	95
COc1ccc(NC(=O)N[C@@H]2CCN(C)[C@@H](c3nc4ccccc4[nH]3)C2)cc1 [Example 37, hydrochloride]	106
CN1CC[C@@H](NC(=O)Nc2ccc(C(F)(F)F)nc2)C[C@@H]1c1nc2ccc(Cl)cc2[nH]1 [Example 73, hydrochloride]	101
CN1CC[C@@H](NC(=O)c2ccc3c(c2)OCCO3)C[C@@H]1c1nc2ccc(Cl)cc2[nH]1 [Example 34, hydrochloride]	107

[A] CN1CC[C@@H](NC(=O)Nc2ccc(C#N)cc2)C[C@@H]1c1nc2cc(C(F)(F)F)ccc2[nH]1 [Example 7, hydrochloride]
[B] CN1CC[C@@H](NC(=O)Cc2ccc3c(c2)CCO3)C[C@@H]1c1nc2ccccc2[nH]1 [Example 116, trifluoroacetate]
Query: Please indicate which item has the smaller measured inhibition at 2 µM: A versus B Mark your selection by writing its label.
Response: B
(B: 68.2%, A: 109%)

[I] CN1CC[C@@H](NC(=O)c2ccc(C(=O)C(F)(F)F)cc2)C[C@@H]1c1nc2ccccc2[nH]1
[II] CC(C)(C)OC(=O)N1C[C@@H](NC(=O)Nc2ccc(Cl)c(C(F)(F)F)c2)C[C@H]1c1nc2ccccc2[nH]1
Query: Sort I and II by inhibition at 2 µM descending and give the first. Mark your selection by writing its label.
Response: I
(I: 102%, II: 57.1%)
